Data origin: PubChem BioAssay (NCATS)

assay: Cell Viability - LYMP2-026 (AID 989); conditions: LYMP2-026 lymphoblastoid cell viability, qHTS; series mostly up to 92.2 µM;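 also: cells exposed to compound for 24 h at 37 °C; nearly all actives have a fitted effect of over 50% in size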
Results filed as inconclusive are left out. The source made the active and inactive calls. Calls follow the shape of the dose curve; as a rule, active = well fitted cell-killing curve with a large enough effect; inconclusive = small, poorly fitted or top-dose-only effect; inactive = flat fitted curve, though single readings scatter.
Return exactly one item of active, inactive

Example entries and their recorded answers appear below.
compound: C=CC1CO1 (stereo not drawn)
answer label: inactive
//
compound: C=CC(=O)OCCCCCCOC(=O)C=C
answer label: active

Please share the test call associated with `CC(CCC(=O)O)(c1ccc(O)cc1)c1ccc(O)cc1` .
inactive

Please share the test call associated with `Nc1cc(C(=O)O)c(O)c(S(=O)(=O)O)c1` .
inactive

Please share the test call associated with `Cc1ccc2ccc3cccc4ccc1c2c34` .
inactive

Please share the test call associated with `COc1ccc(C(=O)Nc2ccccc2)cc1[N+](=O)[O-]` .
inactive

Please share the test call associated with `CCCC(=O)OC(=O)CCC` .
inactive

Please share the test call associated with C=CC(C)(O)CCCC(C)CCCC(C)CCCC(C)C (stereo not drawn) .
inactive
